Entries annotated with measured melting point

O=C(NC1CCN(CCNC(=O)c2n[nH]c3ccccc23)CC1)OCc1ccccc1 ... 184 to 187 °C
CCCCCCCS(=O)(=O)c1nn2c(=O)c(OC)cnc2s1 ... 106 to 109 °C
COC(=O)CC1=C(C)Cc2cc(F)c(F)cc21 ... 86 to 90 °C

QUERY: Any idea what its melting point is? The compound is `CCCOc1nc(C(F)(F)C(F)(F)F)cc(=O)n1-c1cc(O)c(Cl)cc1F`
RESULT: 109 to 111 °C

QUERY: Can you look up the measured melting point of `CC(=O)Nc1cnc(-c2cc(Cl)ccc2Cl)c(N)n1` for me?
RESULT: 152 to 154 °C

QUERY: Endpoint output: melting point of `CCN(CC)CCOc1ccc2c(=O)c3ccc(OCCN(CC)CC)cc3oc2c1` . Value?
RESULT: 70.5 to 72 °C

QUERY: Any idea what melting point was measured for `COC(=O)Nc1nn2cccc2c(=O)[nH]1` ?
RESULT: 232 °C

QUERY: Consider the compound shown here: `COc1cc(-n2c(C#N)c3n(c2=O)CCCCC3)c(F)cc1Cl` What is its recorded melting point?
RESULT: 144 to 146 °C

QUERY: Give its melting point value. Item: `O=C(Nc1ccncc1)Nc1c(Cl)cccc1Cl`
RESULT: 217 to 219 °C

QUERY: Endpoint output: melting point of O=C1CCN(Cc2ccc([N+](=O)[O-])cc2)CC1C(c1ccc(F)cc1)c1ccc(F)cc1 (stereo not given) . Value?
RESULT: 118 to 119 °C

* * *

Measure: melting point (°C)
Numbers only here, please. The scale is °C.

CN1CCC(C(=O)Nc2ccc(CN(C)C3CCOCC3)cc2)=Cc2cc(-c3ccc(C(F)(F)F)cc3)ccc21 ... 188

QUERY: Item under review: `Clc1cc2oc3ccccc3c2nn1` . Reported melting point?
RESULT: 122

* * *

Listing: melting point of selected compounds

QUERY: Look at this compound and give its reported melting point. CCOC(=O)C1Cc2ccc(NC(=O)OCc3ccccc3)cc2NC1=O (stereo not given)
RESULT: 187 to 189 °C

QUERY: Need melting point of `Cc1ccc2occ(-c3ccccc3)c2c1` , thanks.
RESULT: 99 to 108 °C

QUERY: Give its melting point value. Item: COc1ccc(S(=O)(=O)N(c2ccc(Cl)cc2Cc2c(F)cccc2F)C(C)CO)cc1OC (stereo not given)
RESULT: 169 °C

* * *

Measure: melting point

See these solved cases before continuing.
Cc1cc2c(c(C(=O)c3ccccc3)c1)NCC2 ... 84 °C
CCCCCCCCCCCCCc1cc[nH]c1 ... 32.5 to 33.5 °C
CC(C)(C)OC(=O)n1cc(C(=O)C=C(O)C2(C(=O)O)C=CC=CC2)c2ccccc21 (stereo unspecified) ... 138 to 141 °C
COc1ccc(C2CCN(C)CC2)cc1Nc1ncc2ccc(-c3ccccc3OC)n2n1 ... 64 to 69 °C
COC(=O)c1cccc(Cl)c1NC(C)=O ... 135 to 136 °C

QUERY: Please report the recorded melting point for `c1ccc(Nc2ncc3ccncc3n2)cc1` .
RESULT: 161 °C

QUERY: Value lookup for melting point; key = `CCc1cc2c(Cl)ccc(-n3c(=O)cc(C(F)(F)F)n(C)c3=O)c2o1`
RESULT: 159 to 160 °C

QUERY: Which melting point is listed for CC(=S)NCC1CN(c2ccc(C(=O)NN)c(F)c2)C(=O)O1 (stereo unspecified) ?
RESULT: 177 °C

QUERY: Need melting point, item `Cc1oc2ccc(N)cc2c1C`
RESULT: 77 to 78 °C

QUERY: Requested read-out: melting point. Entry: `Cc1ccc(C(=O)Nc2ccc(N3CCN(Cc4ccc[nH]4)CC3)cc2)c(-c2ccc(C(F)(F)F)cc2)c1`
RESULT: 196 to 198 °C

QUERY: Field request: melting point | item: `O=C(c1ccccc1)c1ccc(Cl)c(N=C=S)c1`
RESULT: 96.7 °C

QUERY: Need melting point, item `CCCCCCCCCCC1(CCCCCCCCCC)c2cc(Br)ccc2-c2ccc(-c3cccs3)cc21`
RESULT: 36.9 to 38.4 °C

QUERY: Requested field: melting point. Item: Cc1cn(C(C)C(=O)N(C)C)nc1-c1ccc(Cl)s1 (stereo unspecified)
RESULT: 112 to 114 °C

QUERY: # query: melting point of entry COC(=O)C(=O)c1ccc(OCCOC2CCc3ccccc3C2)cc1 (stereo unspecified)
RESULT: 86 to 87 °C
